system: SNB-19 CNS; assay: NCI-60 one-dose screen, 48 h (100 = growth as untreated, 0 = no growth, -100 = all killed); details: 10 µM unless noted
About 83,000 compounds went through this panel and 20% of them were active in at least one assay; those are over-represented in the sample as a whole. *1 amine or outer side, *2 acyl side, *3 side chain or, on linkers, in order; H or OH if unused. Where a SMILES comes first, the peptide text is derived from it. Bridges are numbered along the chain shown (N, C = ends). Roman numbers before positions name the chains, in order. [ ]: non-standard residue; d: D form. Actinocin(1to9) = Cc1c2oc3c(C)ccc(C(=O)[*:2])c3nc-2c(C(=O)[*:1])c(N)c1=O; NMeV = CN[CH](C(=O)O)C(C)C; Sar = CNCC(=O)O
Endpoint: growth (%)
I only need the number, in %, no unit after it.

Example entries and their recorded answers appear below.
CCOc1ccc2c(c1)/C(=C\C=C\C1CC(C)C3CC(OCC)CCC3N1CC)CC(C)N2CC (configuration not stated): 22.2
CCC(C)C1NC(=O)C(NC(=O)c2c3nc4c(C(=O)NC5C(=O)NC(C(C)CC)C(=O)N6CCCC6C(=O)N(C)CC(=O)N(C)C(C(C)C)C(=O)OC5C)ccc(C)c4oc-3c(C)c(=O)c2N)C(C)OC(=O)C(C(C)C)N(C)C(=O)CN(C)C(=O)C2CCCN2C1=O (configuration not stated) (I: TIP[Sar][NMeV] / II: TIP[Sar][NMeV]; ester I:1-I:C, II:1-II:C; linker I:N-II:N via Actinocin(1to9); configuration not given here): 4.27
O=C(Nc1ccc(Cl)c(Cl)c1)Nc1ccccc1O: 85.8
COC(=O)c1nc(=S)[nH]c(C(=O)OC)c1C(=O)c1ccc(Cl)c(Cl)c1: 105
CN(C)c1ccc(/C=C/c2sc3ccc4ccccc4c3[n+]2C)cc1: -32.5

// Cc1cc2cccnc2c2ncccc12 : growth value = 34.1

// C/C=C/c1cc2c(c(=O)o1)C(=O)[C@@H](O)[C@H](C)O2 : growth value = 94.9

* * *

system: CAKI-1 renal; assay: NCI-60 one-dose screen, 48 h (100 = growth as untreated, 0 = no growth, -100 = all killed); details: 10 µM unless noted
The panel holds about 83,000 compounds, 20% with a hit somewhere; the sample as a whole holds those more often.
Endpoint: growth (%)
I only need the number, in %, no unit after it.

CC(=O)c1ccc2c(c1)CCc1ccccc1-2: 101
CC(=O)OC1CC2CCC1(C)C2(C)C (configuration not stated): 92.6
Cc1nnc(N/N=C/c2ccc([N+](=O)[O-])o2)[nH]c1=O: -23.3
O=Nc1ccc2ccccc2c1O: 78.1
CCCCCCCCCCCC[n+]1ccc2ccccc2c1: 40.9
Cc1cc2nc(CC(=O)c3ccncc3)c(=O)[nH]c2cc1C: 82.9
CCCCOS(=O)(=O)c1ccccc1: 93.2
S=C(S)OCN1CCOCC1: 92.6
Cc1cc2cccnc2c2ncccc12: 12.6
S=c1[nH]c2cc(Cl)ccc2s1: 92.3

// CCOc1ccc(C(CN2CCOCC2)C(C)=O)cc1OC (configuration not stated) : growth value = -89.9

// O=[N+]([O-])c1ccc(C(Br)c2ccc([N+](=O)[O-])cc2)cc1 : growth value = 92.2

// Oc1ccc2ccccc2c1N=Nc1nccs1 : growth value = -31.1

// S=C1SCN(Cc2cccs2)CN1Cc1cccs1 : growth value = 99.4

// O=[N+]([O-])c1ccc(C2N(Cc3ccc(Cl)cc3)CCN2Cc2ccc(Cl)cc2)cc1 : growth value = 72.7

// O=C1C=C(Cl)C(=O)c2ccccc21 : growth value = 90.6

* * *

System: NCI-H23 lung
Test: NCI-60 one-dose screen, 48 h
Details: 10 µM unless noted
Experimental: Growth inhibition of the NCI-H23 human Non-Small Cell Lung tumor cell line is measured as a screen for anti-cancer activity. Cells are grown in 96 well plates and exposed to the test compound for 48 hours. Compounds are tested at a single concentration, which is 10^-5 M for most compounds. The reported endpoint is percent growth (GI% or GIPRCNT), where numbers from 0 - 100% represent growth inhibition, and numbers from -100% - 0 represent cell death. […]
This is part of a sample that, as a whole, favours compounds with a hit. Of some 83,000 tested, about 20% had one in any assay. Activity calls are given as the source filed them. Rule for the calls: active = growth percent below 10; inactive = the rest.
// classify into yes (1) (active), no (0) (inactive)

Examples with answers:
O=Nc1ccc2ccccc2c1O: no (0)
N#C/C(=N\Nc1ccc(Cl)cc1)C(=O)C1CC1: no (0)
CC(C)(C)c1ccc(O)c(Br)c1: no (0)
Cn1c(-c2ccccc2)c(/C=C/C2=[N+](C)c3ccccc3C2(C)C)c2ccccc21: yes (1)

Test call, this molecule: CN(C)CCN(C)CC(C)(C)C(=O)/C=C/c1ccc(Cl)c(Cl)c1
yes (1)

Test call, this molecule: S=c1[nH]c2cc(Cl)ccc2s1
no (0)

* * *

tested on: NCI-H460 lung; assay: NCI-60 one-dose screen, 48 h; settings: 10 µM unless noted
This is part of a sample that, as a whole, favours compounds with a hit. Of some 83,000 tested, about 20% had one in any assay. Active and inactive are the calls of the source. Rule for the calls: active = growth percent below 10; inactive = the rest.
// classify into label 1 (active), label 0 (inactive)

Examples with answers:
CCNc1nnnn1CC: label 0
COc1ccc(C(OCC2OC(n3ccc(NC(=O)c4ccccc4)nc3=O)C(O)C2O)(c2ccccc2)c2ccccc2)cc1 (stereo not drawn): label 0
CC(C)N=C(N)/N=C(\N)Nc1ccc2ccc3ccccc3c2c1: label 1

Test call, this compound: COc1ccc2nc3cc([N+](=O)[O-])ccc3c(NNc3ccccc3)c2c1
label 0

Test call, this compound: CCCCC(C=O)(C=C=C(C)C)CC (stereo not drawn)
label 0

Test call, this compound: CC(=O)N1CC(=O)NC1=S
label 0

Test call, this compound: O=C(c1ccccc1)c1cc2ccccc2oc1=O
label 0

Test call, this compound: CCC(=O)c1cc([N+](=O)[O-])c(Br)s1
label 0

Test call, this compound: O=[N+]([O-])c1ccc(C(Br)c2ccc([N+](=O)[O-])cc2)cc1
label 0

Test call, this compound: O=C(Nc1ccc(Cl)c(Cl)c1)Nc1ccccc1O
label 0

Test call, this compound: CN(C)c1ccc(C(=C2C=CC(=[N+](C)C)C=C2)c2ccc(N(C)C)cc2)cc1
label 1

* * *

Test system: A498 renal
Experiment: NCI-60 one-dose screen, 48 h (100 = growth as untreated, 0 = no growth, -100 = all killed)
Details: 10 µM unless noted
Protocol: Growth inhibition of the A498 human tumor cell line is measured as a screen for anti-cancer activity. Cells are grown in 96 well plates and exposed to the test compound for 48 hours. Compounds are tested at a single concentration, which is 10^-5 M for most compounds. The reported endpoint is percent growth (GI% or GIPRCNT), where numbers from 0 - 100% represent growth inhibition, and numbers from -100% - 0 represent cell death. For example, a value of 40 represents 60% growth inhibition. […]
About 83,000 compounds went through this panel and 20% of them were active in at least one assay; those are over-represented in the sample as a whole.
Endpoint: growth (%)
I only need the number, in %, no unit after it.

CCCCCCCCCCCC[n+]1ccccc1 (tested in a mixture with another compound): 42
O=C1C=CC(=O)N1c1cccc2c1CCCC2: 96.2
CCN(CC)CCNc1ccc([N+](=O)[O-])c2sc3ccccc3c(=O)c12: 43.7
O=C(Nc1ccc(Cl)c(Cl)c1)Nc1ccccc1O: 106
CC1=CC(=NC(=O)CBr)C=C/C1=N\S(=O)(=O)c1ccccc1: 97.2
Cc1ccccc1N=C(N)Nc1ccccc1C (tested in a mixture with another compound): 96.8
Nc1nc(-c2ccccc2)nc(N)c1N=O: 112
Clc1ccc(Cc2nc3ccccc3s2)cc1: 117

// CN(Cc1ccccc1)c1ccc(SC#N)cc1 : growth value = 93

// Nc1ccc(C(=O)/C=C/c2ccccc2)cc1 : growth value = 101

// O=C1C(=O)c2cc([N+](=O)[O-])ccc2-c2ccccc21 : growth value = 110

* * *

System: HOP-92 NSCLC
Experiment: NCI-60 one-dose screen, 48 h (100 = growth as untreated, 0 = no growth, -100 = all killed)
Conditions: 10 µM unless noted
Protocol: Growth inhibition of the HOP-92 human Non-Small Cell Lung tumor cell line is measured as a screen for anti-cancer activity. Cells are grown in 96 well plates and exposed to the test compound for 48 hours. Compounds are tested at a single concentration, which is 10^-5 M for most compounds. The reported endpoint is percent growth (GI% or GIPRCNT), where numbers from 0 - 100% represent growth inhibition, and numbers from -100% - 0 represent cell death. […]
About 83,000 compounds went through this panel and 20% of them were active in at least one assay; those are over-represented in the sample as a whole.
Please use rule met whenever growth is not below 50%, and rule not met whenever it is.

Examples with answers:
OCCOSCCO: rule met
O=C(c1ccccc1)C(Br)[N+](=O)[O-] (stereo unspecified): rule met
CCCN(CCC)C(=O)c1ccc(C)cc1: rule met
CN1CCC(CN2c3ccccc3Sc3ccccc32)C1 (stereo unspecified): rule not met
Cc1nc([N+](=O)[O-])c(Sc2nncc(-c3ccccc3)n2)n1C: rule met

As a next step, examine the compound that follows.
Has Oc1ccc2c(c1)CCc1ccccc1-2 a recorded growth greater than or equal to 50%?
rule met
